Reference for the values: patent US20220315554A1

- studySystem: FAP-expressing human WI-38 fibroblasts (Homo sapiens, UniProt Q12884)
- Construct: FAP-expressing human WI-38 fibroblasts (ECACC) were cultured in EMEM; host or cells: WI-38 human fibroblasts
- Sequence (Q12884 whole entry): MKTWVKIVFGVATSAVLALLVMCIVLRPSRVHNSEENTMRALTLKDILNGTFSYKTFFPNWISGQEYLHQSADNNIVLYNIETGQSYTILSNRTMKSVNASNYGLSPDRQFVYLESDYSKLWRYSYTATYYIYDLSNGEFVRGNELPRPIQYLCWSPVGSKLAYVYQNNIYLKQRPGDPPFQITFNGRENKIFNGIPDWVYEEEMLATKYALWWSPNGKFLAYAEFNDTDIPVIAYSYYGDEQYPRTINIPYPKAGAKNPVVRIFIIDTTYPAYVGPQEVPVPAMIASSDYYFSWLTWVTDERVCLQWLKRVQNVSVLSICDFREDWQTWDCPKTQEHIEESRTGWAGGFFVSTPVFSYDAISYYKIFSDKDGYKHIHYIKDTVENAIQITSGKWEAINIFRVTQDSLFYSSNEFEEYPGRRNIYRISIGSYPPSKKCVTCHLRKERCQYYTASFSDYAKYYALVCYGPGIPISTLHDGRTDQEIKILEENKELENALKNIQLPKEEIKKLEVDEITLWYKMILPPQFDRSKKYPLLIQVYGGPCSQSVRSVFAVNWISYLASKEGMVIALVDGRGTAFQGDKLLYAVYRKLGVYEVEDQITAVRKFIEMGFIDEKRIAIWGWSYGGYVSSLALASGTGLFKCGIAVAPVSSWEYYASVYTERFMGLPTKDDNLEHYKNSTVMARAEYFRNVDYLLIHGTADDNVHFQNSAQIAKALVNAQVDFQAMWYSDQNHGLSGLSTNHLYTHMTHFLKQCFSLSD
- protocolText: Competitive FACS binding assay
- conditionContext: pIC50 Category (FACS), competition with 3 nM Cy5-labeled compound, WI-38 fibroblasts, 4° C., 1 hour
pIC50: −log10 of the molar value. Numbered stars: 1 amine (or outer) side, 2 acyl side, 3 side chain; on linkers, the order of the positions; unused ones are H or OH. Bridge positions count the residues as written; N and C are the ends. Square brackets hold non-standard residues; d marks the D form. Peptide text beside a SMILES is read from it. * marks the point of attachment. NH(CH2)3NHDOTA = O=C(O)CN1CCN(CC(=O)O)CCN(CC(=O)NCCCN*)CCN(CC(=O)O)CC1; Phe(2-CF3) = N[C@@H](Cc1ccccc1C(F)(F)F)C(=O)O; mXylylene = c1cc(C[*:1])cc(C[*:2])c1; X44 = O=C(CC1CCN([*:1])CC1)[*:2]; 2Thi = N[C@@H](Cc1cccs1)C(=O)O; Hexanoyl = CCCCCC(=O)*
Catalogue of compounds with associated pIC50

So what's the measured pIC50 for this one? CSCC[C@H](NC(C)=O)C(=O)N[C@H]1CSCc2cccc(c2)CSC[C@H](C(=O)N[C@@H](CC(=O)O)C(=O)N[C@@H](Cc2c[nH]cn2)C(=O)N[C@@H](Cc2ccccc2)C(=O)N[C@@H](CCCNC(=N)N)C(=O)N[C@@H](CC(=O)O)C(N)=O)NC(=O)[C@H](Cc2ccccc2)NC(=O)[C@H](CCC(=O)O)NC(=O)[C@H]([C@@H](C)O)NC(=O)[C@@H]2CCCN2C(=O)[C@@H]2CCCN2C1=O [3BP-3182] (Ac-MCPPTEF[dC]DHFRD-NH2; linker 2-8 via mXylylene)
7.10 to 8.00

Which pIC50 reading was recorded for the compound CSCC[C@H](NC(C)=O)C(=O)N[C@H]1CSCc2cccc(c2)CSC[C@@H](C(=O)N[C@@H](CC(=O)O)C(=O)N[C@@H](Cc2c[nH]cn2)C(=O)N[C@@H](Cc2ccccc2)C(=O)N[C@@H](CCCNC(=N)N)C(=O)N[C@@H](CC(=O)O)C(N)=O)NC(=O)[C@H](Cc2ccccc2)NC(=O)[C@H](CCC(=O)O)NC(=O)[C@H]([C@@H](C)O)NC(=O)[C@@H]2CCCN2C(=O)[C@@H](C)NC1=O [3BP-3215] (Ac-MC[dA]PTEFCDHFRD-NH2; linker 2-8 via mXylylene) ?
6.10 to 7.00

Param item = CCCCCC(=O)N[C@H]1CSCc2cccc(c2)CSC[C@@H](C(=O)N[C@@H](CC(=O)O)C(N)=O)NC(=O)[C@H](Cc2ccccc2C(F)(F)F)NC(=O)[C@H](CCC(N)=O)NC(=O)[C@H]([C@@H](C)O)NC(=O)[C@@H]2CCCN2C(=O)[C@@H]2CCCN2C1=O [3BP-3409] (Hexanoyl-CPPTQ[Phe(2-CF3)]CD-NH2; linker 1-7 via mXylylene) ; retrieve measured pIC50.
7.10 to 8.00

Suppose we examine the compound CSCC[C@H](NC(C)=O)C(=O)N[C@H]1CSCc2cccc(c2)CSC[C@@H](C(=O)N[C@@H](CC(=O)O)C(=O)N[C@@H](Cc2c[nH]cn2)C(=O)N[C@@H](Cc2cccs2)C(=O)N[C@@H](CCCNC(=N)N)C(=O)N[C@@H](CC(=O)O)C(N)=O)NC(=O)[C@H](Cc2ccccc2)NC(=O)[C@H](CCC(=O)O)NC(=O)[C@H]([C@@H](C)O)NC(=O)[C@@H]2CCCN2C(=O)[C@@H]2CCCN2C1=O [3BP-3193] (Ac-MCPPTEFCDH[2Thi]RD-NH2; linker 2-8 via mXylylene) ; what pIC50 value has been reported?
> 8.00

Give the measured pIC50 of CSCC[C@H](NC(C)=O)C(=O)N[C@H]1CSCc2cccc(c2)CSC[C@@H](C(=O)N[C@@H](CC(=O)O)C(=O)N[C@@H](Cc2c[nH]cn2)C(=O)N(C)[C@@H](Cc2ccccc2)C(=O)N[C@@H](CCCNC(=N)N)C(=O)N[C@@H](CC(=O)O)C(N)=O)NC(=O)[C@H](Cc2ccccc2)NC(=O)[C@H](CCC(=O)O)NC(=O)[C@H]2NC(=O)[C@@H]3C(CCN3C(=O)[C@@H]3CCCN3C1=O)[C@H]2O [3BP-3188] .
> 8.00

Any idea what pIC50 was measured for CSCC[C@H](NC(C)=O)C(=O)N[C@H]1CSCc2cccc(c2)CSC[C@@H](C(=O)N[C@@H](CC(=O)O)C(=O)N[C@@H](Cc2c[nH]cn2)C(=O)N[C@H](Cc2ccccc2)C(=O)N[C@@H](CCCNC(=N)N)C(=O)N[C@@H](CC(=O)O)C(N)=O)NC(=O)[C@H](Cc2ccccc2)NC(=O)[C@H](CCC(=O)O)NC(=O)[C@H]([C@@H](C)O)NC(=O)[C@@H]2CCCN2C(=O)[C@@H]2CCCN2C1=O [3BP-3211] (Ac-MCPPTEFCDH[dF]RD-NH2; linker 2-8 via mXylylene) ?
> 8.00

Any idea what its pIC50 is? The compound is CCCCCC(=O)N[C@H]1CSCc2cccc(c2)CSC[C@@H](C(=O)N[C@@H](CC(=O)O)C(N)=O)NC(=O)[C@H](Cc2ccccc2)NC(=O)[C@H](CCC(=O)NCCCNC(=O)CN2CCN(CC(=O)O)CCN(CC(=O)O)CCN(CC(=O)O)CC2)NC(=O)[C@H]([C@@H](C)O)NC(=O)[C@@H]2CCCN2C(=O)[C@@H]2CCCN2C1=O [3BP-3472] (Hexanoyl-CPPTE(NH(CH2)3NHDOTA)FCD-NH2; linker 1-7 via mXylylene)
< 6.00

pIC50 lookup needed for CSCC[C@H](NC(=O)CCC(=O)NCCCOCCOCCOCCOCCCNC(=O)CN1CCN(CC(=O)O)CCN(CC(=O)O)CCN(CC(=O)O)CC1)C(=O)N[C@H]1CSCc2cccc(c2)CSC[C@@H](C(=O)N[C@@H](CC(=O)O)C(=O)N[C@@H](Cc2c[nH]cn2)C(=O)N[C@@H](Cc2ccccc2)C(=O)N[C@@H](CCCNC(=N)N)C(=O)N[C@@H](CC(=O)O)C(N)=O)NC(=O)[C@H](Cc2ccccc2)NC(=O)[C@H](CCC(=O)O)NC(=O)[C@H]2NC(=O)[C@@H]3C(CCN3C(=O)[C@@H]3CCCN3C1=O)[C@H]2O [3BP-3168] , thanks.
> 8.00

Query: pIC50; subject: CCCCCC(=O)N[C@H]1CSCc2cccc(c2)CSC[C@@H](C(=O)N[C@@H](CC(=O)O)C(=O)N2CCC(CC(=O)N[C@@H](CCCNC(=N)N)C(N)=O)CC2)NC(=O)[C@H](Cc2ccccc2)NC(=O)[C@H](CCC(=O)O)NC(=O)[C@H]([C@@H](C)O)NC(=O)[C@@H]2CCCN2C(=O)[C@@H]2CCCN2C1=O [3BP-3302] (Hexanoyl-CPPTEFCD[X44]R-NH2; linker 1-7 via mXylylene)
> 8.00
